Source listed as PubChem BioAssay.

assay-comment: Restrictive medium S. cerevisiae growth inhibition, OD615, pilot screen of yeast lifespan reduction project, restrictive growth control (AID 706);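 further: modified DeaD lifespan yeast strain shifted to restrictive glucose medium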
reported-conditions: OD615, 48 h, at 10 µM, stronger effect = higher value
measured-attribute: growth inhibition (%)
Numeric only. Scale: %

Completed entries (count: 3):
compound | measured-attribute | endpoint-result
Cc1ccc(C)n1-n1c(C)nc2scc(-c3cccs3)c2c1=O | growth inhibition | 1.95
O=C(O)CCCC(=O)N1CCN(c2cccc(Cl)c2)CC1 | growth inhibition | -1.71
Cn1c(N)c(C(=O)COC(=O)Cc2ccsc2)c(=O)n(C)c1=O | growth inhibition | -0.56

Form field: reported growth inhibition of CC(NC(=O)CN1CCN(Cc2ccc(Cl)cc2)C1=O)c1ccc2c(c1)OCCO2 (stereo unspecified) -21.2

Lookup O=C1c2oc3ccc(F)cc3c(=O)c2C(c2cccc(O)c2)N1CCCN1CCOCC1 (stereo unspecified) -8.16

Lookup CCOC(=O)c1c(CC(C)C)csc1NC=O -33.1

Lookup CCOc1ccc(N(CC(=O)NC2CCCCCC2)S(=O)(=O)c2c(C)noc2C)cc1 -1.42

Lookup O=C(Nc1nccs1)C1CCCN(S(=O)(=O)c2cccc3cccnc23)C1 (stereo unspecified) 11.8

Lookup O=C1c2cccc3cccc(c23)C(=O)N1c1nccs1 0

Lookup O=C(NCc1cccnc1)c1cnn2ccccc12 -0.235

Lookup O=C1CC(c2ccco2)CC(O)=C1C=NCC1CCNCC1 (stereo unspecified) -5.49

----------
assay-comment: reversal of MRP1-mediated doxorubicin resistance, pilot screen, H69AR cells, doxorubicin co-treatment (AID 601)
reported-conditions: H69AR cells + 2 uM doxorubicin, CellTiter-Glo, 72 h; at 10 µM; stronger effect = higher value
Active and inactive are the calls of the source.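 Rule for the calls: active = viability loss from added drug above about 55%, and viability with drug at most 40%, in both replicates (limit read from the data, passing the limit was not always enough); inconclusive = both conditions met in only one replicate; inactive = neither replicate meets both conditions.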
Reported differential viability (reversal) is given for each of the following molecules.

molecule | differential viability (reversal)
C=CCn1c(C)cc(C(=O)CSc2nc3ccccc3o2)c1C | 10% (inactive)
CCOC(=O)C(NC(=O)Nc1ccccc1)(OCC)C(F)(F)F (stereo not given) | 6.82% (inactive)
Cc1cccc(CN2CCN(C(c3ccccc3)c3ccc(Cl)cc3)CC2)c1 (stereo not given) | 1.06% (inactive)
COCCn1c(SCC(=O)Nc2sc(C)c(C)c2C#N)nnc1C(C)C | -3.22% (inactive)

Form field: reported differential viability (reversal) of CCC(C)(C(=O)NC1CCCC1)N(C(=O)c1cnccn1)c1c(C)n(C)n(-c2ccccc2)c1=O (stereo not given) 0.145% (inactive)

----------
assay-comment: viability gain of MRP-1-high H69AR cells under doxorubicin, pilot screen, MRP-1 activator project, CellTiter-Glo, duplicate (AID 807);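 further: compound pretreatment 18-22 h then 72 h combined with doxorubicin; 0% = doxorubicin alone and 100% = vehicle without doxorubicin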
reported-conditions: H69AR viability with doxorubicin, CellTiter-Glo luminescence; at 10 µM; stronger effect = higher value
Reported viability increase is given for each of the following molecules.
Numeric only. Scale: %

Completed entries (count: 3):
molecule | viability increase [%]
C(=N\n1cnnc1)/c1ccc(N2CCOCC2)s1 | -1.47
O=C(Cn1cc2c(n1)CCCCC2)NCc1ccccc1 | -0.82
CCn1c2ccccc2c2cc(NC(=O)c3ccco3)ccc21 | -3.74

Form field: reported viability increase of CC(C)(CC(=O)O)Cc1nc(-c2ccc(Cl)cc2)no1 1.26

Lookup CCOC(=O)c1[nH]c(C)c(C(=O)NCCN2CCOCC2)c1C -1.39

Lookup Cc1ccc(C)c(S(=O)(=O)Nc2ccccc2C(=O)Nc2cc(C)on2)c1 -3.6

Lookup CCN1CCN(c2nc(SC)nc3sc4c(c23)CC(C)(C)OC4)CC1 -5.96

Lookup CCOc1ccccc1C1C(C(N)=O)=C(C)Nc2nc(CCCO)nn21 (centres undefined) -1.39

----------
assay-comment: RAM signaling pathway blockade in yeast – S. cerevisiae, Pdr1DBD-CYC8 efflux-inhibited sensitized strain, primary screen (AID 1298);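 further: 0% = DMSO untreated cells without growth and 100% = 10 µM 1-NA-PP1 full growth; higher means more yeast growth rescued from 5-FOA killing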
reported-conditions: S. cerevisiae cbk1-as DSE1-URA3 strain, 5-FOA growth OD615, 2 d; at 50 µM; stronger effect = higher value
measured-attribute: RAM network inhibition (%)
Numeric only. Scale: %

Completed entries (count: 3):
compound | RAM network inhibition / %
O=C(c1ccccc1S(=O)(=O)NCc1ccccc1)N1CCCC1 | 3.93
Cc1cccc(N2CCN(S(C)(=O)=O)CC2)c1C | 5.4
CC(=O)N1c2ccccc2C(=O)C1N1CCCCC1 (configuration not stated) | -1.19

Form field: reported RAM network inhibition of CCOCCCNC(=O)c1cccs1 0.76

Lookup C=CCn1c(SC(CCO)C(=O)NCc2ccco2)nc2sc3c(c2c1=O)CCC3 (configuration not stated) 5.12

Lookup CCOC(=O)c1c(C)n(C)c2cc(Br)c(C(=O)OC)cc12 7.11

----------
assay-comment: reversal of MRP1-mediated doxorubicin resistance, pilot screen, H69AR cells, doxorubicin co-treatment (AID 601)
reported-conditions: H69AR cells, CellTiter-Glo, 72 h; compound alone cytotoxicity; at 10 µM
measured-attribute: viability (%)
Numeric only. Scale: %

Form field: reported viability of O=C1c2ccccc2C(=O)N1CNc1ccccc1 101

Lookup CC(C)COC(=O)NCC12C=CC(O1)C1C(=O)N(c3ccc(Cl)cc3)C(=O)C12 (stereo unspecified) 89.9

Lookup COc1ccc(Cl)cc1N1CC(c2nc3ccccc3[nH]2)CC1=O (stereo unspecified) 104

----------
Reported inhibition is given for each of the following compounds.
assay-comment: inhibitors of the yeast RAM network, pilot screen, dse1pr::URA3 reporter, 5-FOA selection (AID 869);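 further: 0% = DMSO wells with no growth and 100% = 10 µM 1-NA-PP1 with full growth; RAM network block rescues cells from 5-FOA so hits raise OD615 growth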
reported-conditions: S. cerevisiae dse1pr::URA3 5-FOA growth, OD615, 2 d; at 10 µM; stronger effect = higher value; strain carries analog-sensitive mutant Cbk1 kinase
Numeric only. Scale: %

Completed entries (count: 4):
compound | inhibition, %
O=C(Cn1nc(Cc2cccnc2)c2ccccc2c1=O)NCC1COc2ccccc2O1 (stereo not given) | 1.99
COC(=O)C1=C(C)N(C)C(C)=C(C(=O)OC)C1c1ccsc1 | 1.99
COc1ccc(CCNC(=O)c2oc3ccc(S(=O)(=O)N4CCOCC4)cc3c2C)cc1OC | 1.17
CCCn1c(CN(Cc2ccccc2)Cc2ccccc2)nc2c1c(=O)n(C)c(=O)n2C | 1.22

Shift focus to the following entry.
Form field: reported inhibition of Cc1nc2cc(-c3cccc(F)c3)nn2c(C)c1CCC(=O)NC(C)CCc1ccco1 (stereo not given) 0.955

----------
assay-comment: inhibitors of the yeast RAM network, pilot screen, dse1pr::URA3 reporter, 5-FOA selection (AID 869);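 further: 0% = DMSO wells with no growth and 100% = 10 µM 1-NA-PP1 with full growth; RAM network block rescues cells from 5-FOA so hits raise OD615 growth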
reported-conditions: S. cerevisiae dse1pr::URA3 5-FOA growth, OD615, 2 d; at 10 µM; stronger effect = higher value; strain carries analog-sensitive mutant Cbk1 kinase
Param threshold (1%) applies to inhibition; output label 1 when value >= threshold, label 0 when value < threshold.

Worked examples follow.
molecule | cat
O=C(NCC(c1cccs1)N1CCOCC1)c1cc2ccccc2o1 (stereo unspecified) | label 0
Nc1ccc2nc3n(c(=O)c2c1)CCC3 | label 1
COc1ccc(NC(=O)NCCCN2CCN(c3cc(C)ccc3C)CC2)cc1 | label 0
CC1=CS/C(=C(/C#N)C(=O)N2CCOCC2)N1c1ccccc1 | label 0
Cn1c(SCC(=O)Nc2ccc(F)cc2F)nnc1-c1cccnc1 | label 1

Pending molecule:
Please check the record CC(C)(C)c1ccc(-c2nnc3sc(-c4ccccn4)nn23)cc1 and state if its inhibition is at or above 1%. label 1

----------
assay-comment: reducers of endogenous Her2 protein level, primary screen, SKBR3 breast tumor cells, AlphaScreen, ATP viability (AID 461);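 further: percent of carrier control wells set as 100% viability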
reported-conditions: 18-24 h, measured here: SKBR3 viability, ATP luminescence, at 10 µM
Flag rule - viability less than 90% flags true (1); the remaining entries get false (0).

Worked examples follow.
compound | cat
CC1CCCC(C)N1C(=O)COC(=O)c1ccc[nH]c1=O (stereo not given) | false (0)
Nc1c(C(=O)NCCc2ccccc2)nnn1Cc1ccccc1 | false (0)
CC(C)(C)C(=O)Cn1c(=N)n(Cc2ccccc2)c2ccccc21 | true (1)

Pending compound:
Strictly below 90% in viability? C[C@]12CC[C@@H]3c4ccc(O)cc4CC[C@H]3[C@@H]1CC[C@@H]2OC(=O)CCC(=O)O false (0)

----------
assay-comment: reversal of MRP1-mediated doxorubicin resistance, pilot screen, H69AR cells, doxorubicin co-treatment (AID 601)
reported-conditions: H69AR cells + 2 uM doxorubicin, CellTiter-Glo, 72 h; at 10 µM; stronger effect = higher value
The source made the active and inactive calls.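 How the source made its calls: active means viability loss from added drug above about 55%, and viability with drug at most 40%, in both replicates (limit read from the data, passing the limit was not always enough); inconclusive means both conditions met in only one replicate; inactive means neither replicate meets both conditions.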
Reported differential viability (reversal) is given for each of the following molecules.

molecule | differential viability (reversal)
O=C(CN1C(=O)c2cccc3cccc1c23)N1CCN(c2ccccc2)CC1 | 23.3% (inactive)
CN1Cc2c(N)cccc2C(c2ccccc2)C1 (stereo unspecified) | 5.5% (inactive)
Cc1cc(C)n(-c2nc(C)nc3sc4c(c23)CCC(C)C4)n1 (stereo unspecified) | -0.45% (inactive)
Cc1cc(C)c2c(C)nn(C3CCCCC3)c2n1 | 12.3% (inactive)
Cc1cc(C)c(S(=O)(=O)Nc2cccnc2)c(C)c1 | 8.71% (inactive)

Shift focus to the following entry.
Form field: reported differential viability (reversal) of O=C(CSc1nnc(Cc2ccccc2)n1C1CCCCC1)N1CCOCC1 6.44% (inactive)
